- Tgt: recombinant human NK3 receptor (Homo sapiens, UniProt P29371)
- Construct: expressed in transfected cells; host or cells: HEK293 cells, transient expression; membranes
- Sequence (P29371 whole entry): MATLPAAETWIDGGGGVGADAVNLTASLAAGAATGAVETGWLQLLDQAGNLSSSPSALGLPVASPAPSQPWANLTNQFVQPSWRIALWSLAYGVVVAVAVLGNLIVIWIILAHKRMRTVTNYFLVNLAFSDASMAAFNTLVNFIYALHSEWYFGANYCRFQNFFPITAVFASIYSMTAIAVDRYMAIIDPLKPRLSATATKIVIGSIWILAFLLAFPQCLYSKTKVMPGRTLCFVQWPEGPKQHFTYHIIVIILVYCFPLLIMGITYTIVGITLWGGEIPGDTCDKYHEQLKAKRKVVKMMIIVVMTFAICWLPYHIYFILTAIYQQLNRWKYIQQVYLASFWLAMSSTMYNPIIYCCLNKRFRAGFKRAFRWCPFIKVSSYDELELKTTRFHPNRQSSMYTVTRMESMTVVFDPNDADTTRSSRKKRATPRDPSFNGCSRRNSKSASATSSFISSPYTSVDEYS
- Assay notes: [3H]SR142801 competition binding assay
Assay readout: Ki (nM)
// return numeric value only (unit: nM, not printed)

| Compound | Assay readout | Reading unit | Experimental result |
| --- | --- | --- | --- |
| CN(C(=O)OCCC(F)(F)F)[C@@H]1CN(C(=O)C2CCN(C(=O)C3(C)CC3)CC2)C[C@H]1c1ccc(Cl)c(Cl)c1 (stereo in doubt) | Ki | nM | 9.2 |
| CCC(C)(C)OC(=O)N(C)[C@@H]1CN(C(=O)C2CCN(c3ccc(C#N)cn3)CC2)C[C@H]1c1ccc(Cl)cc1 | Ki | nM | 79.4 |

Could you now consider this next compound?
### Prompt Entry CN(C(=O)OCC1CCCO1)[C@@H]1CN(C(=O)C2CCN(c3ccc(C#N)cn3)CC2)C[C@H]1c1ccc(Cl)cc1 (stereo partly drawn) has what Ki?
### Response 21.8
